Each entry below lists one item and its recorded growth inhibition value.
Experiment: NCI Yeast Anticancer Drug Screen. Data for the mlh1 rad18 strain (AID 175)
Conditions: S. cerevisiae mlh1 rad18 strain growth inhibition; at 50.0 µM; stronger effect = higher value
Compounds without any hit were thinned out: in the full panel of roughly 79,000, 15% have a hit. Activity calls are given as the source filed them. No stated cut-off is given here; in the data, active means growth inhibition above about 70%; inactive means the rest.

CN(C)CCC1(C#N)CCCCC1: 1.65% (inactive)
C=Cc1ccc(C[n+]2cccc(C(N)=O)c2)cc1: -35.9% (inactive)
CCCCC(CC)C1OCCS1 (configuration not stated): -10% (inactive)
O=c1[nH]c(-c2ccccc2)c([N+](=O)[O-])c(=O)[nH]1: 13.6% (inactive)
c1ccc2c(c1)C1OC2c2ccccc21: -1.25% (inactive)

Note to self: growth inhibition recorded for CC(=O)C1(C)SC(N(c2ccccc2)c2ccccc2)=NC1=O (configuration not stated) was -0.6% (inactive)

Given item `Cc1cc(=O)n2ccnc2[nH]1` , the value recorded as its growth inhibition is 20.1% (inactive)

Where these numbers come from: PubChem BioAssay (NCI)
